biological target: Coagulation factor X (Homo sapiens, UniProt P00742)
Sequence (P00742 41-179 limits assumed): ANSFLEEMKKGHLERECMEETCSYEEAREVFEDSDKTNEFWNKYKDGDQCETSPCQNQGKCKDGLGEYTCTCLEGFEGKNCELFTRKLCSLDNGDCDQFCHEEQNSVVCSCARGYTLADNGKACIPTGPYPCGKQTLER
Sequence (P00742 235-488 limits assumed): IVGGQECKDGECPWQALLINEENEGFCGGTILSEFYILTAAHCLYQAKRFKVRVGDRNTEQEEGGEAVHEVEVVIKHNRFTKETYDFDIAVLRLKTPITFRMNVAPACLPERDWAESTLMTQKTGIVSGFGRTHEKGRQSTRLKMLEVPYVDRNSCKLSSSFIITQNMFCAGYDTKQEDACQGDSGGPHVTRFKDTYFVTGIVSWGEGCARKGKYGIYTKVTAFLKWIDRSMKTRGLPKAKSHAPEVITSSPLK
measuredQuantity: pKi
// field semantics: pKi = negative decimal log of concentration (mol/L)

Look over these answered cases.
INSERT INTO results (compound, measuredvalue) VALUES
  ('Cc1ccc(NS(=O)(=O)Cc2ccccc2)c(=O)n1CC(=O)NC1CCc2nc(N)sc2C1 (configuration not stated)', 4.04),
  ('Cc1ccc(NS(=O)(=O)Cc2cccc(C(F)(F)F)c2)c(=O)n1CC(=O)NC1CCc2nc(N)sc2C1 (configuration not stated)', 4.09),
  ('Cc1ccc(NS(=O)(=O)Cc2ccc(F)cc2)c(=O)n1CC(=O)NC1CCc2c(sc(=N)n2N)C1 (configuration not stated)', 3.88),
  ('Cc1ccc(NS(=O)(=O)Cc2ccccc2)c(=O)n1CC(=O)N[C@@H]1CCc2nc(N)sc2C1', 3.65);

Request: Give Coagulation factor X (Homo sapiens, UniProt P00742) pKi for Cc1ccc(NS(=O)(=O)Cc2ccccc2)c(=O)n1CC(=O)N[C@H]1CCc2nc(N)sc2C1
Response: 3.43

Request: Give Coagulation factor X (Homo sapiens, UniProt P00742) pKi for Cc1ccc(CS(=O)(=O)Nc2ccc(C)n(CC(=O)NC3CCc4nc(N)sc4C3)c2=O)cc1 (configuration not stated)
Response: 4.10

Request: Give Coagulation factor X (Homo sapiens, UniProt P00742) pKi for Cc1ccc(CS(=O)(=O)Nc2ccc(C)n(CC(=O)NCC3CCc4n[nH]cc4C3)c2=O)cc1 (configuration not stated)
Response: 3.64

These entries and their values trace back to ChEMBL document CHEMBL1146655.
